- System: PDE4
- ASSAY_PROTOCOL: PDE inhibition: PDE4
- Assay type: biochemical
- EXPERIMENTAL_SETUP: similar protocols
Where a name gives a salt, the structure may show the parent alone.
OUTCOME_MEASURE: IC50 (µM)
Just the number please, in µM, no unit attached.

(Q) Reported IC50 for CC1=C(CC(=O)NCc2ccccc2)c2cc(F)ccc2/C1=C\c1ccncc1 [Example 38, Hydrochloride] : what is it?
(A) 6

* * *

- EXPERIMENTAL_SYSTEM: GST-cGB-PDE5 fusion protein (Homo sapiens, UniProt O76074)
- Construct: made in house; host or cells: E. coli BL21 (DE3)
- Sequence (O76074 46-539 limits assumed): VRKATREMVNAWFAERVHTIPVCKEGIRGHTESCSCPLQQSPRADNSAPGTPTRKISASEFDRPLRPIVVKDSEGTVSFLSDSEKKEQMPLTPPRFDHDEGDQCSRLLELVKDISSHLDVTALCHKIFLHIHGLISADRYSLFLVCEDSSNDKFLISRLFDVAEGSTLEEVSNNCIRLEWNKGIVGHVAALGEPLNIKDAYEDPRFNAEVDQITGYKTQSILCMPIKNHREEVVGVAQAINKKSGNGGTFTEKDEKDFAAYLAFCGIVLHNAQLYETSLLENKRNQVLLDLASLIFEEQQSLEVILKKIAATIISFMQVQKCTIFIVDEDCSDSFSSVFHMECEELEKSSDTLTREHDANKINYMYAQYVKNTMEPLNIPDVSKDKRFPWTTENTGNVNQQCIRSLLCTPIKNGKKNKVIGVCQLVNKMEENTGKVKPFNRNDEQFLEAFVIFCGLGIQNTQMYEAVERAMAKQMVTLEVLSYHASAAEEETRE
- ASSAY_PROTOCOL: cGMP binding assay with GST-cGB-PDE5 fusion protein
- EXPERIMENTAL_SETUP: 3H-cGMP 2 μM, 22° C., 1 hour
OUTCOME_MEASURE: competition with cGMP in binding of GST-cGB-PDE5

[[record]]
molecule = "CCCCOC1C2OP(=O)(O)OCC2OC1n1cnc2c(=O)[nH]c(N)nc21 (centres unmarked)"
experimental_system = "GST-cGB-PDE5 fusion protein (Homo sapiens, UniProt O76074)"
result = "did not compete"

[[record]]
molecule = "O=c1ccn([C@@H]2O[C@@H]3COP(=O)(O)O[C@H]3[C@H]2O)c(=O)[nH]1"
experimental_system = "GST-cGB-PDE5 fusion protein (Homo sapiens, UniProt O76074)"
result = "did not compete"

[[record]]
molecule = "CCCCOC1C2OP(=O)(O)OCC2OC1n1cnc2c(N)ncnc21 (centres unmarked)"
experimental_system = "GST-cGB-PDE5 fusion protein (Homo sapiens, UniProt O76074)"
result = "did not compete"

[[record]]
molecule = "Nc1ccn([C@@H]2O[C@@H]3COP(=O)(O)O[C@H]3[C@H]2O)c(=O)n1"
experimental_system = "GST-cGB-PDE5 fusion protein (Homo sapiens, UniProt O76074)"
result = "did not compete"

